# target of assay: T1, 6xHis-CTNNBL1Δ76 (human, UniProt Q8WYA6 77-563)
# T1 chain: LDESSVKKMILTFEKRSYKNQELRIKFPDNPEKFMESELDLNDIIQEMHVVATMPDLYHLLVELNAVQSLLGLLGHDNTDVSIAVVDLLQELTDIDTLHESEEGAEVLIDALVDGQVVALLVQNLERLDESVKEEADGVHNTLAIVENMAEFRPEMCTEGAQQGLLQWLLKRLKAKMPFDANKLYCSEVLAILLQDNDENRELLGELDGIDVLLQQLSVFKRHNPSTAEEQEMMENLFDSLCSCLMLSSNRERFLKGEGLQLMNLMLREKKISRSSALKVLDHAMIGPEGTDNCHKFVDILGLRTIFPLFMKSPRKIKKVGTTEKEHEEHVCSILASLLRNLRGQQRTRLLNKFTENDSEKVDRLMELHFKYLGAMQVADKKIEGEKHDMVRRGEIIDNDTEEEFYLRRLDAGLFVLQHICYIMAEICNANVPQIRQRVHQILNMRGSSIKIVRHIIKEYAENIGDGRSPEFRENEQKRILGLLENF
# assay method text: ITC; second site

binder	Kd
RKKRGGRRYRKMKE (Limits are the UniProt NLS motif (351-364); the exact peptide is shown only in Fig. 4B and may have different flanks) [Prp31 NLS peptide]	~12 µM
KKRKRKR (Limits are the UniProt region required for CTNNBL1 interaction (200-206), taken as the NLS3 core; the assayed peptide is shown only in Fig. 4B and may have longer flanks) [CDC5L NLS3 peptide]	~4 µM
